Tested on: KB
experimental.details: Cytotoxicity against human KB cells after 3 days by trypan blue exclusion technique
Format: functional
condition.context: 72 h, read-out: ED50 (the source's name)
property: EC50 (mg/L)
Numbers only; they are read as mg/L.

Please review the entries below; each comes with its answer.
COc1cc([C@@H]2c3c(oc4cc(O)cc(O)c4c3=O)-c3cc(O)c(O)cc3[C@@H]2CO)ccc1O [NEOHYDNOCARPIN]	1.06
COc1cc(/C=C(\CO)c2cc([C@H]3Oc4cc(-c5cc(=O)c6c(O)cc(O)cc6o5)ccc4O[C@@H]3CO)cc(OC)c2O)ccc1O [HYDNOWIGHTIN]	1.96
COc1cc([C@H]2Oc3cc(-c4cc(=O)c5c(O)cc(O)cc5o4)ccc3O[C@@H]2CO)ccc1O [HYDNOCARPIN]	1.15

Ask: Indicate the recorded EC50 value for this molecule: Nc1ccn([C@@H]2O[C@H](CO)[C@@H](O)[C@@H]2O)c(=O)n1 [CYTARABINE]
Reply: 2.84

Ask: Indicate the recorded EC50 value for this molecule: NC(=O)NO [HYDROXYUREA]
Reply: 5.29

Ask: Indicate the recorded EC50 value for this molecule: O=c1[nH]cc(F)c(=O)[nH]1 [FLUOROURACIL]
Reply: 1.25

* * *

experimental.details: Cytotoxicity against human HeLaS3 cells after 3 days by trypan blue exclusion technique
Type: functional
condition.context: HeLa S3, 72 h, read-out: ED50 (the source's name)
Listed next: entries and their corresponding EC50.
Numbers only; they are read as µg/mL.

Please review the entries below; each comes with its answer.
NC(=O)NO [HYDROXYUREA]	1.96
COc1cc([C@H]2Oc3cc(-c4cc(=O)c5c(O)cc(O)cc5o4)ccc3O[C@@H]2CO)ccc1O	2.02
Nc1ccn([C@@H]2O[C@H](CO)[C@@H](O)[C@@H]2O)c(=O)n1	2.13
COc1cc([C@@H]2c3c(oc4cc(O)cc(O)c4c3=O)-c3cc(O)c(O)cc3[C@@H]2CO)ccc1O	2.12
COc1cc(/C=C(\CO)c2cc([C@H]3Oc4cc(-c5cc(=O)c6c(O)cc(O)cc6o5)ccc4O[C@@H]3CO)cc(OC)c2O)ccc1O	3.01

Here is another compound to look at.
Ask: Indicate the recorded EC50 value for this compound: O=c1[nH]cc(F)c(=O)[nH]1
Reply: 2.47

* * *

experimental.details: Cytotoxicity against human EH118MG cells after 3 days by trypan blue exclusion technique
Assay type: functional
condition.context: 72 h, read-out: ED50 (the source's name)
property: EC50 (µg/mL)
Numbers only; they are read as µg/mL.

Please review the entries below; each comes with its answer.
Nc1ccn([C@@H]2O[C@H](CO)[C@@H](O)[C@@H]2O)c(=O)n1	1.88
COc1cc([C@H]2Oc3cc(-c4cc(=O)c5c(O)cc(O)cc5o4)ccc3O[C@@H]2CO)ccc1O	2.59
O=c1[nH]cc(F)c(=O)[nH]1	1.28
COc1cc(/C=C(\CO)c2cc([C@H]3Oc4cc(-c5cc(=O)c6c(O)cc(O)cc6o5)ccc4O[C@@H]3CO)cc(OC)c2O)ccc1O	5.02
COc1cc([C@@H]2c3c(oc4cc(O)cc(O)c4c3=O)-c3cc(O)c(O)cc3[C@@H]2CO)ccc1O	4.07

Here is another compound to look at.
Ask: Indicate the recorded EC50 value for this compound: NC(=O)NO [HYDROXYUREA]
Reply: 2.27
